assayedTarget: Factor D (Homo sapiens (Human), UniProt P00746)
Sequence (P00746 26-253): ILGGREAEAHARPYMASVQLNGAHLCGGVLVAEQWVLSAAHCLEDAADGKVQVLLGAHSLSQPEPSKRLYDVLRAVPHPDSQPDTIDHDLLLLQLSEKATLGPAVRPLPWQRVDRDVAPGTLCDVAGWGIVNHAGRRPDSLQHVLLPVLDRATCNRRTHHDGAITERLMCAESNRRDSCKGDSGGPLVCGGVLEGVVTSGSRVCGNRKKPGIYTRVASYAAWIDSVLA
pIC50: −log10 of the molar value.
valueType: pIC50

Below, each entry is followed by its recorded pIC50 result.
>  <compound>
NCc1cccc(-c2cc(COc3ccccc3CC(=O)O)cc3c2cnn3CC2CC2)c1 [Compound 126h]

>  <assayedTarget>
Factor D (Homo sapiens (Human), UniProt P00746)

>  <reading>
> 6.00

$$$$
>  <compound>
Cc1cc2c(-c3ccnc(CN)c3)cc(COc3ccccc3CC(=O)O)cc2o1 [Compound 461c]

>  <assayedTarget>
Factor D (Homo sapiens (Human), UniProt P00746)

>  <reading>
> 6.00

$$$$
>  <compound>
NC(=O)c1cccc(-c2cc(COc3ccccc3CC(=O)O)cc3ccoc23)c1 [Compound 85d]

>  <assayedTarget>
Factor D (Homo sapiens (Human), UniProt P00746)

>  <reading>
5.00 to 6.00

$$$$
>  <compound>
NCc1cccc(-c2cc(C(=O)Nc3ccccc3CC(=O)O)cn3cnnc23)c1 [Compound 17c]

>  <assayedTarget>
Factor D (Homo sapiens (Human), UniProt P00746)

>  <reading>
< 5.00

$$$$
>  <compound>
NCc1nccc(-c2cc(COc3cc(F)ccc3CC(=O)O)cc3c(C(F)(F)F)coc23)c1F [Compound 490c]

>  <assayedTarget>
Factor D (Homo sapiens (Human), UniProt P00746)

>  <reading>
> 6.00

$$$$

Query: Supply measured pIC50 of CC(C)n1ccc2c(-c3cccc(CN)c3)cc(COc3cc(F)ccc3CC(=O)O)cc21 [Compound 449c] in your reply.
Reply: > 6.00

Query: Supply reported pIC50 belonging to this compound: COc1ccc(CC(=O)O)c(OCc2cc(-c3cccc(CN)c3)c3occ(C(F)(F)F)c3c2)c1 [Compound 488c]
Reply: > 6.00

Query: Give the measured pIC50 for NCc1cccc(-c2cc(COc3ccccc3CC(=O)O)nc3[nH]ccc23)c1F [Compound 86b]
Reply: > 6.00
